# credit: ChEMBL document CHEMBL1201862

Test system: COLO 205
assayProtocol: NCI tumour cell line growth inhibition, 48 h
Active and inactive are the calls of the source. Rule as the data show it: active = GI50 up to about 1.1 µM and inactive = higher.
Give your call using only these classes: active, inactive

1) COc1cc(Nc2nc3ccc(C(F)(F)F)cc3nc2C(=O)O)cc(OC)c1OC
inactive
2) CCN(CC)c1ccc2c(c1)Oc1ccc(N(C(C)=O)c3ccccc3)cc1C21OC(=O)c2ccccc21 (centres undefined)
inactive
3) O=C1CSC(c2cccc(Cl)c2)N1c1ccc(-c2ccc(-n3c(-c4ccccc4)nc4ccccc4c3=O)cc2)cc1 (centres undefined)
inactive

Enquiry: Outcome? Cc1ccc(-c2cc(-c3ccc(Cl)cc3)nc(/N=C3\C(=O)N(CN4CCCCC4)c4ccc(Cl)cc43)n2)cc1
Return: inactive

Enquiry: Write down the call the test reported for this compound. Item: CCC(=O)NCCc1c[nH]c2ccc(OC)cc12
Return: inactive

Enquiry: Check the results log: what was the call for CNC(=O)OCc1c2ccncc2c(C)c2c1[nH]c1ccccc12 ?
Return: active

Enquiry: # outcome recorded in this test, key = CC(=O)N(C(C)=O)c1ncc(-n2nc(-c3ccccc3)cc2-c2ccccc2)c(-c2ccccc2)n1
Return: inactive

Enquiry: Returns: the outcome recorded for O=C1C2=C(c3ccccc31)C(c1ccc(Cl)cc1)NC(S)=N2 (centres undefined) in this assay.
Return: inactive

----------
System: 786-0
assayProtocol: NCI tumour cell line growth inhibition, 48 h
Active and inactive are the calls of the source. No stated cut-off is given here; in the data, active = GI50 up to about 1.1 µM and inactive = higher.
Readings of GI50 for the listed molecules

1) COc1ccc(C(=O)C(Br)C(Br)C(=O)O)cc1 (centres undefined)
31.8 µM (inactive)

Enquiry: Field: GI50 (786-0). Entry: CC1C[C@]2(C[C@@H](C)C(=O)O2)O[C@@H]2CC3(C)[C@@H]4CCC5C(C)(C)OC(=O)C[C@H]6OO[C@]4(CC[C@]3(C)C12)CC56O (some centres undefined)
Return: > 100 µM (inactive)

Enquiry: Requested read-out GI50, target or system 786-0, entry C=CCn1c(=O)c(-c2ccccc2)c(O)c2ccccc21
Return: > 100 µM (inactive)

Enquiry: Form: Entry = Cc1ccccc1NC(=O)Cc1csc2[n+]1C(=O)/C(=C/c1ccc([N+](=O)[O-])cc1)S2 | System = 786-0 | GI50 = ____
Return: 58.9 µM (inactive)

----------
Test system: CAKI-1
assayProtocol: NCI tumour cell line growth inhibition, 48 h
Calls of active or inactive are those of the source. Rule as the data show it: active = GI50 up to about 1.1 µM and inactive = higher.
quantityName: GI50

Sample records with GI50:
1) COC(=O)c1c(C)ccc2c(O)c3c(cc12)C(=O)c1c2c(cc(O)c1C3=O)C1(C)OC(C)(O2)C(O)C(N(C)C)C1O (stereo unspecified)
1.91 µM (inactive)
2) CC1CN=C(N(C(=O)Nc2ccccc2)c2ccc(Cl)c(Cl)c2)S1 (stereo unspecified)
27.9 µM (inactive)
3) O=C1CSC(c2cccc(Cl)c2)N1c1ccc(-c2ccc(-n3c(-c4ccccc4)nc4ccccc4c3=O)cc2)cc1 (stereo unspecified)
> 100 µM (inactive)
4) Cc1cc(S(=O)(=O)n2ccnc2Oc2ccccc2)c(SSc2cc(Cl)c(C)cc2S(=O)(=O)n2ccnc2Oc2ccccc2)cc1Cl
> 100 µM (inactive)
5) COc1ccc(O)cc1
94.4 µM (inactive)

Moving on to another compound below.
Enquiry: Quick check: GI50 on CAKI-1, item COc1ccc(-c2[nH]c3c4c(nc5c(c24)C(=O)CC(C)(C)C5)CC(C)(C)C3)cc1 ?
Return: 70.5 µM (inactive)
